- Test system: CP297
- PROTOCOL: qHTS profiling for inhibitors of Plasmodium falciparum proliferation (AID 504749); note: nearly all actives have a fitted effect of over 60% in size; note: potency is the fitted concentration of half-maximal effect
- TEST CONTEXT: P. falciparum in erythrocytes, SYBR Green DNA, 72 h; series mostly up to 28.7 µM
- Procedure: NIH National Institute of Allergy and Infectious Diseases [NIAID] NIH Chemical Genomics Center [NCGC] […] Because mature erythrocytes lack DNA, only Plasmodium-derived DNA is detected. NCGC Assay Protocol Summary: The SYBR Green viability assay was adapted from a method described previously (Plouffe et al., 2008). […] The following morning, fluorescence intensity at 485(14) nm excitation and 535(25) nm emission wavelengths was measured on an EnVision (Perkin Elmer) plate reader. […]
Results filed as inconclusive are left out. Activity calls are given as the source filed them. Calls come from the whole dose curve; as a rule, active = well fitted inhibition curve with a large enough effect; inconclusive = small, poorly fitted or top-dose-only effect; inactive = flat fitted curve, though single readings scatter.
MEASURED QUANTITY: Potency

Solved cases (4 shown):
MOLECULE: CC(C)(Oc1ccc(CCNC(=O)c2ccc(Cl)cc2)cc1)C(=O)O
Potency: inactive

MOLECULE: COC(=O)C1=C(C)NC(C)=C(C(=O)OC(C)(C)CN(C)CCC(c2ccccc2)c2ccccc2)C1c1cccc([N+](=O)[O-])c1 (centres undefined)
Potency: 3.79 µM (active)

MOLECULE: C[n+]1cc2c3c(ccc2c2ccc4cc5c(cc4c21)OCO5)OCO3
Potency: inactive

MOLECULE: Cc1ccc(Cl)c(Nc2ccccc2C(=O)O)c1Cl
Potency: inactive

Please look at the items below and tell me Potency for each one, in order.
1. NCCCNCCSP(=O)(O)O
2. CN(C)CCOC(=O)COc1ccc(Cl)cc1
3. CCCN1C[C@H](CSC)C[C@@H]2c3cccc4[nH]cc(c34)C[C@H]21
4. CCN(CC)CCCN(c1ccccc1)C1Cc2ccccc2C1
5. CCN(CC)CC(=O)Nc1c(C)cccc1C
6. FC(F)(F)c1ccccc1-n1ccnc1
7. CN(C)CC/C=C1\c2ccccc2COc2ccccc21
8. Brc1c(NC2=NCCN2)ccc2nccnc12

Output line:
1: inactive; 2: inactive; 3: inactive; 4: 13.5 µM (active); 5: inactive; 6: inactive; 7: inactive; 8: inactive

Please look at the items below and tell me Potency for each one, in order.
1. CN=C(NC#N)NCCSCc1nc[nH]c1C
2. NC(=O)c1cn(Cc2c(F)cccc2F)nn1
3. CCC(=O)c1ccc2c(c1)N(CCCN(C)C)c1ccccc1S2
4. CCCOc1ccccc1-c1nc2n[nH]nc2c(=O)[nH]1

Output line:
inactive
inactive
inactive
inactive

Please look at the items below and tell me Potency for each one, in order.
1. Nc1nc(N)c2nc(-c3ccccc3)c(N)nc2n1
2. O=C(O)CP(=O)(O)O
3. NC(Cc1ccc(Cl)cc1)C(=O)O (centres undefined)

Output line:
1. inactive
2. inactive
3. inactive

Where do the numbers come from? From PubChem BioAssay (NCATS).
